Overview of recorded TG for various compounds
organism: Rattus norvegicus; test: Open TG-GATES - Regimen: Single; assay type: toxicity, organism-based, Sprague-Dawley; set-up: regimen Single, gender Male, age 6 weeks; settings: in vivo, po, 0 mg/kg, 24 h, tissue Plasma, route gavage, dose level Control
I'd appreciate it if you wrote the number followed by its unit.

See these solved cases before continuing.
- Compound: "Cn1c(=O)c2[nH]cnc2n(C)c1=O.O"
  Recorded Measurement: "100.2 mg/dL"
- Compound: "NC(=O)N1c2ccccc2C=Cc2ccccc21 [CARBAMAZEPINE]"
  Recorded Measurement: "93.6 mg/dL"
- Compound: "CN(C)CCC=C1c2ccccc2CCc2ccccc21"
  Recorded Measurement: "97.4 mg/dL"
- Compound: "C[C@H](CS)C(=O)N1CCC[C@H]1C(=O)O"
  Recorded Measurement: "95.8 mg/dL"
- Compound: "COc1cc2c(c3oc(=O)c4c(c13)CCC4=O)[C@@H]1C=CO[C@@H]1O2"
  Recorded Measurement: "141.9 mg/dL"
- Compound: "CCc1cc(C(N)=S)ccn1 [ETHIONAMIDE]"
  Recorded Measurement: "90.6 mg/dL"
- Compound: "CC(=O)Oc1ccccc1C(=O)O"
  Recorded Measurement: "124.4 mg/dL"
- Compound: "COc1ccc(Cc2nccc3cc(OC)c(OC)cc23)cc1OC"
  Recorded Measurement: "87.8 mg/dL"

Continue with the next compound.
**Query** // returns reported TG for input O=C(O)c1cc(/N=N/c2ccc(S(=O)(=O)Nc3ccccn3)cc2)ccc1O
**Result** 133 mg/dL

###

species on record: Rattus norvegicus; test: Open TG-GATES - Regimen: Single; assay type: toxicity, organism-based, Sprague-Dawley; design: regimen Single, gender Male, age 6 weeks; settings: in vivo, po, 1000 mg/kg, 9 h, tissue Blood, route gavage, dose level High
Observable: Plat (x10_4/uL)
Field format: number, assumed x10_4/uL, no unit text.

See these solved cases before continuing.
- Compound: "O=C(O)c1cc(/N=N/c2ccc(S(=O)(=O)Nc3ccccn3)cc2)ccc1O"
  Recorded Measurement: 110.1
- Compound: "C[C@H](CS)C(=O)N1CCC[C@H]1C(=O)O"
  Recorded Measurement: 113.6
- Compound: "CCc1cc(C(N)=S)ccn1 [ETHIONAMIDE]"
  Recorded Measurement: 121.3
- Compound: "O=C(O)c1cn(C2CC2)c2cc(N3CCNCC3)c(F)cc2c1=O"
  Recorded Measurement: 104.6

Continue with the next compound.
**Query** // returns reported Plat for input Clc1ccccc1CN1CCc2sccc2C1
**Result** 132.4

###

species: Rattus norvegicus; test: Open TG-GATES - Regimen: Single; type: toxicity, organism-based, Sprague-Dawley; set-up: regimen Single, gender Male, age 6 weeks; settings: in vivo, po, 100 mg/kg, 6 h, tissue Plasma, route gavage, dose level Low
// NB: equality with 100 IU/L counts as 0 (no); only LDH strictly below is 1 (yes)

Consider the worked cases shown below.
- Compound: "O=C(O)c1cc(/N=N/c2ccc(S(=O)(=O)Nc3ccccn3)cc2)ccc1O [SULFASALAZINE]"
  Group: "0 (no)"
- Compound: "CCc1cc(C(N)=S)ccn1 [ETHIONAMIDE]"
  Group: "0 (no)"
- Compound: "C[C@H](CS)C(=O)N1CCC[C@H]1C(=O)O [CAPTOPRIL]"
  Group: "1 (yes)"

**Query** Could you please tell me whether LDH recorded for Clc1ccccc1CN1CCc2sccc2C1 [TICLOPIDINE] is less than 100 IU/L?
**Result** 0 (no)

###

organism: Rattus norvegicus; test: Open TG-GATES - Regimen: Single; assay type: toxicity, organism-based, Sprague-Dawley; set-up: regimen Single, gender Male, age 6 weeks; conditions: in vivo, po, 1000 mg/kg, 24 h, tissue Kidney, route gavage, dose level High
Observable: KIDNEY_TOTAL (g)
Field format: number, assumed g, no unit text.

- Molecule: "Clc1ccccc1CN1CCc2sccc2C1 [TICLOPIDINE]"
  Unit Annotation: "g"
  Recorded Measurement: 1.9
- Molecule: "CCc1cc(C(N)=S)ccn1 [ETHIONAMIDE]"
  Unit Annotation: "g"
  Recorded Measurement: 2

**Query** // returns reported KIDNEY_TOTAL for input O=C(O)c1cc(/N=N/c2ccc(S(=O)(=O)Nc3ccccn3)cc2)ccc1O [SULFASALAZINE]
**Result** 1.9

**Query** // returns reported KIDNEY_TOTAL for input C[C@H](CS)C(=O)N1CCC[C@H]1C(=O)O [CAPTOPRIL]
**Result** 2.1

**Query** // returns reported KIDNEY_TOTAL for input O=C(O)c1cn(C2CC2)c2cc(N3CCNCC3)c(F)cc2c1=O [CIPROFLOXACIN]
**Result** 1.7

###

organism: Rattus norvegicus; assay: Open TG-GATES - Regimen: Single; type: toxicity, organism-based, Sprague-Dawley; parameters: regimen Single, gender Male, age 6 weeks; settings: in vivo, po, 0 mg/kg, 6 h, tissue Plasma, route gavage, dose level Control
Think of 100 IU/L as a floor: if LDH stands on it or above, it is true; beneath it, false.

Consider the worked cases shown below.
- Compound: "COc1ccc(Cc2nccc3cc(OC)c(OC)cc23)cc1OC [PAPAVERINE]"
  Group: "true"
- Compound: "O=C(O)c1cc(/N=N/c2ccc(S(=O)(=O)Nc3ccccn3)cc2)ccc1O [SULFASALAZINE]"
  Group: "true"
- Compound: "O=C(O)c1cn(C2CC2)c2cc(N3CCNCC3)c(F)cc2c1=O [CIPROFLOXACIN]"
  Group: "true"
- Compound: "Clc1ccccc1CN1CCc2sccc2C1 [TICLOPIDINE]"
  Group: "true"
- Compound: "CN(C)CCC=C1c2ccccc2CCc2ccccc21 [AMITRIPTYLINE]"
  Group: "false"
- Compound: "CC(=O)Oc1ccccc1C(=O)O [ASPIRIN]"
  Group: "true"
- Compound: "NC(=O)N1c2ccccc2C=Cc2ccccc21 [CARBAMAZEPINE]"
  Group: "true"
- Compound: "C[C@H](CS)C(=O)N1CCC[C@H]1C(=O)O [CAPTOPRIL]"
  Group: "false"
- Compound: "Cn1c(=O)c2[nH]cnc2n(C)c1=O.O [THEOPHYLLINE]"
  Group: "true"
- Compound: "CCc1cc(C(N)=S)ccn1 [ETHIONAMIDE]"
  Group: "false"

Moving on to another compound below.
**Query** Does NC(=O)N/N=C/c1ccc([N+](=O)[O-])o1 [NITROFURAZONE] have a reported LDH of at least 100 IU/L?
**Result** false

###

Overview of recorded Ht for various compounds
species on record: Rattus norvegicus; assay: Open TG-GATES - Regimen: Single; type: toxicity, organism-based, Sprague-Dawley; parameters: regimen Single, gender Male, age 6 weeks; conditions: in vivo, po, 0 mg/kg, 6 h, tissue Blood, route gavage, dose level Control
Field format: number, assumed %, no unit text.

See these solved cases before continuing.
- Compound: "NC(=O)N/N=C/c1ccc([N+](=O)[O-])o1 [NITROFURAZONE]"
  Unit Annotation: "%"
  Ht: 39.4
- Compound: "CN(C)CCC=C1c2ccccc2CCc2ccccc21 [AMITRIPTYLINE]"
  Unit Annotation: "%"
  Ht: 38.9
- Compound: "NC(=O)N1c2ccccc2C=Cc2ccccc21 [CARBAMAZEPINE]"
  Unit Annotation: "%"
  Ht: 40
- Compound: "CSc1ccc2c(c1)N(CCC1CCCCN1C)c1ccccc1S2 (stereo unspecified) [THIORIDAZINE]"
  Unit Annotation: "%"
  Ht: 40.9

**Query** // returns reported Ht for input Cn1c(=O)c2[nH]cnc2n(C)c1=O.O [THEOPHYLLINE]
**Result** 40.9

**Query** // returns reported Ht for input C[C@H](CS)C(=O)N1CCC[C@H]1C(=O)O [CAPTOPRIL]
**Result** 41.1

###

species on record: Rattus norvegicus; assay: Open TG-GATES - Regimen: Daily Repeat; assay type: toxicity, organism-based, Sprague-Dawley; design: regimen Daily Repeat, gender Male, age 6 weeks; conditions: in vivo, po, 0 mg/kg, […], tissue Plasma, route gavage, dose level Control, time 28 day
Overview of recorded GLC for various compounds
Field format: number, assumed mg/dL, no unit text.

See these solved cases before continuing.
- Compound: "CN(C)CCC=C1c2ccccc2CCc2ccccc21"
  GLC (mg/dL): 198.6
- Compound: "O=C(O)c1cn(C2CC2)c2cc(N3CCNCC3)c(F)cc2c1=O"
  GLC (mg/dL): 195.6
- Compound: "Cn1c(=O)c2[nH]cnc2n(C)c1=O.O"
  GLC (mg/dL): 204.6

**Query** // returns reported GLC for input CCc1cc(C(N)=S)ccn1 [ETHIONAMIDE]
**Result** 199.4
